Task for the reader: assign each of the following binders its reported glycan array binding signal (z-score).
Biological target: Fuc(a1-2)[GalNAc(a1-3)]Gal(b1-4)[Fuc(a1-3)]GlcNAc
Assay: glycan array binding signal (z-score within array); higher = stronger binding
Conditions: glycan notation: IUPAC condensed, linker removed
The sample as a whole holds a higher share of the strongest signals than the screen did.

• Epa19 (Candida glabrata) (protein) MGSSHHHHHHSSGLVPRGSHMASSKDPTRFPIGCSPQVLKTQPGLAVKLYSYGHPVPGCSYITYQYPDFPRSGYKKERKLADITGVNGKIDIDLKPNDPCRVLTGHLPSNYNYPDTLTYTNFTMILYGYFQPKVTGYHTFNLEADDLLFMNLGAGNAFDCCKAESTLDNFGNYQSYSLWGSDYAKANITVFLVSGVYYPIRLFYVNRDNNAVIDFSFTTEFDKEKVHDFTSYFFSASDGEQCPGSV = -0.301
• RS-IIL (Ralstonia solanacearum) (protein) AQQGVFTLPANTSFGVTAFANAANTQTIQVLVDNVVKATFTGSGTSDKLLGSQVLNSGSGAIKIQVSVNGKPSDLVSNQTILANKLNFAMVGSEDGTDNDYNDGIAVLNWPLG = 0.302
• FimA-N1 (Actinomyces oris) (protein) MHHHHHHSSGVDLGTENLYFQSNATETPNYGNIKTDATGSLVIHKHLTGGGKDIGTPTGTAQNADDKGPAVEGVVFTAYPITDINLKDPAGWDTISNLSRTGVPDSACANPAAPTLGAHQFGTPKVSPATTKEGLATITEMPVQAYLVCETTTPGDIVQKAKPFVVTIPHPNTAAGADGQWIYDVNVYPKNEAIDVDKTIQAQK = 0.129
• Pwp5 ND (Candida glabrata) (protein) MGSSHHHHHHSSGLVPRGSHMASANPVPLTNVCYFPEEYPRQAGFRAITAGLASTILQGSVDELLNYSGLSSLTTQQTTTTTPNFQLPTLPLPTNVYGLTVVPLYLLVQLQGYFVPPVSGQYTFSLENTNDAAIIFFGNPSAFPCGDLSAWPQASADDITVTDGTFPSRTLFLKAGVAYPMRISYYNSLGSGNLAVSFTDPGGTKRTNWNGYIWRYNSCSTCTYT = -0.827
• Epa21 (Candida glabrata) (protein) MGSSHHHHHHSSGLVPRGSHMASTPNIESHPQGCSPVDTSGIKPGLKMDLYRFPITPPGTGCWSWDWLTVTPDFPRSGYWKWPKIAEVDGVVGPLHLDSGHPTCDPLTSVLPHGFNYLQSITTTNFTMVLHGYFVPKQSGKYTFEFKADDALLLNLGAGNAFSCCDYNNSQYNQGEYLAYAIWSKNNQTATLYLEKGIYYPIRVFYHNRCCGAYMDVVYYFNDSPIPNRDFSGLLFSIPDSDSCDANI = -0.093

For every item below, please supply its glycan array binding signal (z-score).
1. GH98CBM (Clostridium perfringens) (protein) EVYALEESRDVYLSDLDWLNATHGDDTKSKIVQKNHPFTPGNNNQSTKISLKMEDGSISEFEKGLGTIAGSPSTITYDISGAGVTKFFSYLGIDRSANPINEQYAKVDKIEVVVDGKVIYSTINQFPNGLTYETPAIKVDLNIPENAKRLQLKSYAGEKTWGDEVVYADAKFTAKGDFVN
2. RBMC2 (Vibrio cholerae) (protein) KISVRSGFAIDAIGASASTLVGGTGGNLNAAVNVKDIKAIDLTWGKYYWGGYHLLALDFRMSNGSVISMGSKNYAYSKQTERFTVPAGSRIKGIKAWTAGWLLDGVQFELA
3. PEB3 Cj0289c (Campylobacter jejuni), Q9PIK7 (protein) MDVNLYGPGGPHTALKDIANKYSEKTGVKVNVNFGPQATWFEKAKKDADILFGASDQSALAIASDFGKDFNVSKIKPLYFREAIILTQKGNPLKIKGLKDLANKKVRIVVPEGAGKSNTSGTGVWEDMIGRTQDIKTIQNFRNNIVAFVPNSGSARKLFAQDQADAWITWIDWSKSNPDIGTAVAIEKDLVVYRTFNVIAKEGASKETQDFIAYLSSKEAKEIFKKYGWRE
4. SpnanA (Streptococcus pneumoniae), P62575 (protein) MVIEKEDVETNASNGQRVDLSSELDKLKKLENATVHMEFKPDAKAPAFYNLFSVSSATKKDEYFTMAVYNNTATLEGRGSDGKQFYNNYNDAPLKVKPGQWNSVTFTVEKPTAELPKGRVRLYVNGVLSRTSLRSGNFIKDMPDVTHVQIGATKRANNTVWGSNLQIRNLTVYNRALTPEEVQKRS

**Result**
[5.47, -0.4, -0.226, 0.018]
